- test: chemical genetic growth profiling, strain panel (AID 1159580);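 also: tested at 20 µM; growth read once vehicle control cultures reached saturation at 30 °C; 1 = growth at the plate median or of vehicle wells; lower values mean less growth of the strain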
- assay.setup: S. cerevisiae deletion strains, growth OD, locus YDL185W, strain tfp1, stronger effect = lower value
Hit rate of the full screen: of about 5,500 compounds, about 2,000 (36%) were called active. Another 18% or so got no clear call; they are omitted. The list shows a part of the results. *1 amine or outer side, *2 acyl side, *3 side chain or, on linkers, in order; H or OH if unused. Where a SMILES comes first, the peptide text is derived from it. Bridges are numbered along the chain shown (N, C = ends). [ ]: non-standard residue; d: D form. The star is where a group is joined. ξ: configuration not given here. ΔAla(E,3-NHCONH2) = NC(=O)N/C=C(/N)C(=O)O; X2 = NC1=NCCC(C(N[*:1])C(=O)[*:2])N1; ξβ3hOrn = NCCCC(N)CC(=O)*; Dap = NC[CH](N)C(=O)O
normalized growth reference
Please give only the number in your answer, with no unit.

Example cases with answers are listed next.
>  <compound>
Cc1cc(=O)n(-c2ccccc2)n1C

>  <normalized growth>
0.994

$$$$
>  <compound>
CC(=O)CC1CCCCN1 (centres undefined)

>  <normalized growth>
1

$$$$
>  <compound>
CC(=O)NO

>  <normalized growth>
0.992

$$$$
>  <compound>
CC(=O)O[C@H]1CC[C@]2(C)C3CC[C@@]4(C)C(CC5O[C@@]6(CCC(C)CO6)[C@@H](C)C54)C3CC[C@@H]2C1 (some centres undefined)

>  <normalized growth>
0.986

$$$$
>  <compound>
CC(=O)O[C@H]1CC[C@]2(C)C3CC(=O)[C@]4(C)C(C(C)=O)=CCC4C3CC[C@H]2C1 (some centres undefined)

>  <normalized growth>
1.02

$$$$

Report normalized growth for CC[C@H]1CN2CCc3cc(OC)c(OC)cc3C2C[C@@H]1CC1NCCc2cc(OC)c(OC)cc21 (some centres undefined) please. 1

Report normalized growth for CC[C@@H](CO)NC(=O)[C@@H]1C=C2c3cccc4[nH]cc(c34)C[C@H]2N(C)C1 please. 0.981

Report normalized growth for NCCCC(N)CC(=O)NCC1NC(=O)C(CO)NC(=O)C(N)CNC(=O)C(C2CCN=C(N)N2)NC(=O)/C(=C\NC(N)=O)NC1=O (stereo not drawn) (H-[Dap]S[Dap](ξβ3hOrn)[ΔAla(E,3-NHCONH2)][X2]; lactam 1-C; configuration not given here) please. 1.03

Report normalized growth for CC(=O)[C@@]1(O)CCC2C3CCC4=CC(=O)CC[C@]4(C)C3CC[C@@]21C (some centres undefined) please. 1.01

* * *

- test: chemical genetic growth profiling, strain panel (AID 1159580);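 also: tested at 20 µM; growth read once vehicle control cultures reached saturation at 30 °C; 1 = growth at the plate median or of vehicle wells; lower values mean less growth of the strain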
- assay.setup: S. cerevisiae deletion strains, growth OD, locus YLL026W, stronger effect = lower value
Out of some 5,500 compounds screened, about 2,000 (36%) were called active. Inconclusive results (about 18%) are left out. This is one part of the list. Where a SMILES comes first, the peptide text is derived from it. Bridges are numbered along the chain shown (N, C = ends). Side-chain parts run from the residue outwards. [ ]: non-standard residue; d: D form. The star is where a group is joined. Octanoyl(6-Me) = CCC(C)CCCCC(=O)*; X1 = CCC(C)C(N)C1=NC(C(=O)*)CS1; Orn = NCCC[CH](N)C(=O)O; Dab = NCC[CH](N)C(=O)O
normalized growth reference
Please give only the number in your answer, with no unit.

>  <compound>
CC(C)CC1NC(=O)C(CCCN)NC(=O)C(C(C)C)NC(=O)C2CCCN2C(=O)C(Cc2ccccc2)NC(=O)C(CC(C)C)NC(=O)C(CCCN)NC(=O)C(C(C)C)NC(=O)C2CCCN2C(=O)C(Cc2ccccc2)NC1=O (stereo not drawn) (cyclo(FPV[Orn]LFPV[Orn]L); configuration not given here)

>  <normalized growth>
1.02

$$$$
>  <compound>
CCC(C)CCCCC(=O)NC(CCN)C(=O)NC(C(=O)NC(CCN)C(=O)NC1CCNC(=O)C(C(C)O)NC(=O)C(CCN)NC(=O)C(CCN)NC(=O)C(CC(C)C)NC(=O)C(Cc2ccccc2)NC(=O)C(CCN)NC1=O)C(C)O (stereo not drawn) ({Octanoyl(6-Me)}-[Dab]T[Dab][Dab][Dab]FL[Dab][Dab]T; lactam 4-C; configuration not given here)

>  <normalized growth>
1.02

$$$$
>  <compound>
CC1=C(O)C(=O)C=C2C1=CC=C1[C@@]2(C)CC[C@@]2(C)[C@@H]3C[C@](C)(C(=O)O)CC[C@]3(C)CC[C@]12C

>  <normalized growth>
0.74

$$$$
>  <compound>
CCC(C)C(N)C1=NC(C(=O)NC(CC(C)C)C(=O)NC(CCC(=O)O)C(=O)NC(C(=O)NCCCCC2NC(=O)C(CC(N)=O)NC(=O)C(CC(=O)O)NC(=O)C(Cc3cnc[nH]3)NC(=O)C(Cc3ccccc3)NC(=O)C(C(C)CC)NC(=O)C(CCCN)NC2=O)C(C)CC)CS1 (stereo not drawn) (cyclo(DNK([Ile-Glu-Leu-X1])[Orn]IFH); configuration not given here)

>  <normalized growth>
1.01

$$$$
>  <compound>
COc1ccc([C@H]2COc3c(ccc(O)c3OC)C2)c(OC)c1O

>  <normalized growth>
0.994

$$$$
>  <compound>
CC(=O)Oc1cc2c(c(C)c1OC(C)=O)CC1OC13C2(C)CCC1(C)C2CC(C)(C(=O)O)CCC2(C)CCC13C (stereo not drawn)

>  <normalized growth>
1.01

$$$$
>  <compound>
CC(=O)Oc1cccc2c1C(=O)c1c(OC(C)=O)cc(C(=O)O)cc1C2=O

>  <normalized growth>
0.917

$$$$
>  <compound>
COC1(C)CCC2OC2(C)CCC2C1CC2(C)C (stereo not drawn)

>  <normalized growth>
0.991

$$$$

Report normalized growth for CCNc1nc(Cl)nc(NCC)n1 please. 0.981

Report normalized growth for COc1cc2cc3c4cc(OC)c(OC)cc4cc[n+]3c(C)c2cc1OC please. 1.02

Report normalized growth for CCN(CC)CCNC(=O)c1cc(Cl)c(N)cc1OC please. 0.977

Report normalized growth for O=C(CCc1ccc(O)cc1)c1c(O)cc(O)cc1O[C@@H]1O[C@H](CO)[C@@H](O)[C@H](O)[C@H]1O please. 1.02

Report normalized growth for COc1cc2c(cc1OC)[C@@H]1C(=O)c3ccc4c(c3O[C@@H]1CO2)CC(C(C)C)O4 (stereo partly drawn) please. 0.98
